What Kd was measured for each of the following?
- TESTED_TARGET: T1, human ALPPL2 (recombinant protein) (human, UniProt P10696 20-503)
- T1 chain: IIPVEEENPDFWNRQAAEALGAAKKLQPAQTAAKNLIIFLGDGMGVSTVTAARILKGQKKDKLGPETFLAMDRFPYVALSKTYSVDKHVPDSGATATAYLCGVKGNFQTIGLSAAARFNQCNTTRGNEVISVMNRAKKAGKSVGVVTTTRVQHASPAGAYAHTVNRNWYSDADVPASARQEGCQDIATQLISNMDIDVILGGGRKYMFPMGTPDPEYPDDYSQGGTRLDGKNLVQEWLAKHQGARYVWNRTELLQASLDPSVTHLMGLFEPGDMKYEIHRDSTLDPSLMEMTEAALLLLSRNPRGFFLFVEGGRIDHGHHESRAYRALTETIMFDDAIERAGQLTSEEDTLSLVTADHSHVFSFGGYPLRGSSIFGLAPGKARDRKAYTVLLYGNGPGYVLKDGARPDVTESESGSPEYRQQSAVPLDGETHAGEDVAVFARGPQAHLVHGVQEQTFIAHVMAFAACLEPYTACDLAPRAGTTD
- EXPERIMENTAL_PROTOCOL: BLI; single concentration
Numbers only, in nM.

Example cases with answers are listed next.
AB1C36 (antibody, V domains shown, Rabbit antibody cloned from a single B cell) VH: QSLEESGGDLVKPGASLTLTCTASGFSFSSGYNICWVRQAPGKGLELIACIYTSSSGSTYYASWAKGRFTISKTSSTTVTLQMTSLTVADTATYFCARGEAYYAYGYVGYAYYHGAFDPWGPGTLVTVSS VL: DIVMTQTPASVEAGVGGTVTIKCQASHSISKYFSWYQQKIGQPPKLLIYEASTLASGVPSRFKGSGSGTQFTLTISDLECADAATYYCQSYYYGTSSSYAFGGGTEVVVK    1.6
AB1C25 (antibody, V domains shown, Rabbit antibody cloned from a single B cell) VH: QSLEESGGDLVKPGASLTLTCTASGFDFSSNGMCWVRQAPGKGLEWIACIYVDSSDSTYYASWVNGRFTISRTSSTTVTLQMTSLTAADTATYFCARGYGYVGSAMDLWGQGTLVTVSS VL: DIVMTQTPASVEAAVGGTVTIKCQASQSISNELSWYQQKPGQRPKLLIYGASTLESGVPSRFSGSGSGTEFTLTISDLECADAATYYCQSAYYSSSSSYANTFGGGTEVVAA    1.4
AB2C127 (antibody, V domains shown, Rabbit antibody cloned from a single B cell) VH: QSLEESGGDLVKPGASLTLTCTASGFSFNSYYMCWVRQAPGKGLEWIACISGGSSDNTYYASWAKGRFTTSKTSSTTVTLQMTSLTAADTATYFCARDIPRSGYFGCDLWGPGTLVTVSS VL: VVMTQTPASVSEPVGGTVTIKCQASQNIYSNLAWYQQKPGQRPKLLIYGASNLESGVPSRFKGSGSGTEYTLTISNLECADAATYYCQSTVYNSNYANTFGGGTEVVVK    1.7

State the recorded Kd for every item in the following list.
1. AB1C15 (antibody, V domains shown, Rabbit antibody cloned from a single B cell) VH: QSLEESGGDLVKPGASLTLTCTASGFSFSSSYYMCWVRQAPGKGLEWIACIYTTYGGTWYASWAKGRFTISKTSSTTVTLQMTSLTDADTATYFCARSSISDVTYFNLWGPGTLVTVSS VL: DIVMTQTPASVEAAVGGTVTIKCQASQSISNYLAWYQQKPGQPPELLIYRASTLESGVPSRFKGSGSGTGFTLTISDLECADAATYYCQSYYDNNNYAFGGGTEVVVK
2. AB1C19 (antibody, V domains shown, Rabbit antibody cloned from a single B cell) VH: QSLEESGGDLVQPEGSLTLTCKASGFDFSTNIMCWVRQAPGKGLEWIACIYAGDGSTYYASWVNGRFTISKTSSTTVTLQMTSLTAADTATYFCARASTYWNYGYAGYGYYPGYFNLWGPGTLVTVSS VL: DIVMTQTPASVEAAVGGTVTIKCQASQSIISALAWYQQKPGQPPKLLIYAASTLASGVPSRFKGSGSGTQFTLTISDLECADAATYYCQTYAYSTKSNYGSVFGGGTEVVVK

Marked response:
0.6
1.69
